target: UniProtKB P10635
Sequence (P10635 whole entry): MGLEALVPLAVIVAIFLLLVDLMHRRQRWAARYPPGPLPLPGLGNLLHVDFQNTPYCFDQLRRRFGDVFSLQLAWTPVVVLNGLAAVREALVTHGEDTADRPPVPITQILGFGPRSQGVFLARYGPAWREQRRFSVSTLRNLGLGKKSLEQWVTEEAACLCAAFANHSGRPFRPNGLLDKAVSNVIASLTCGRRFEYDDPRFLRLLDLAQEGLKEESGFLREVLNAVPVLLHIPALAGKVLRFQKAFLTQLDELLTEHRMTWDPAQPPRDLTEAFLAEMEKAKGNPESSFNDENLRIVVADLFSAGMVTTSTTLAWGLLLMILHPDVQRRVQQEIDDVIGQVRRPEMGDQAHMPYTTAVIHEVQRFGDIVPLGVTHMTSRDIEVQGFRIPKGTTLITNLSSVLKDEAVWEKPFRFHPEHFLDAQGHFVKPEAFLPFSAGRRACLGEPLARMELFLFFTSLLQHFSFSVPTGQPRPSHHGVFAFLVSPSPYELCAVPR
Reported pIC50 values follow for various compounds
In textbook form, pIC50 equals minus log to base ten of the concentration in mol/L.

Some solved cases for reference:
{"columns": ["entry smiles", "target desc", "pIC50"],
 "data": [
  ["O=C(C1CCN(Cc2ccncc2)CC1)N1CCC(n2c(=O)n(CCOc3ccccc3)c3ccccc32)CC1", "UniProtKB P10635", 4.70],
  ["CN(C)CCCn1c(=O)n(C2CCN(C(=O)C3CCN(Cc4ccncc4)CC3)CC2)c2ccccc21", "UniProtKB P10635", 5.80],
  ["COc1ccc(Cn2c(=O)n(C3CCN(C(=O)C4CCN(Cc5ccncc5)CC4)CC3)c3ccccc32)cc1", "UniProtKB P10635", 4.70],
  ["O=C(C1CCN(Cc2ccncc2)CC1)N1CCC(n2c(=O)n(Cc3ccccc3)c3ccccc32)CC1", "UniProtKB P10635", 5.04],
  ["O=C(C1CCN(Cc2ccncc2)CC1)N1CCC(n2c(=O)n(Cc3ccccc3Cl)c3ccccc32)CC1", "UniProtKB P10635", 5.17]
]}

--- query ---
In: Return value of pIC50 for input O=C(C1CCN(Cc2ccncc2)CC1)N1CCC(n2c(=O)n(Cc3ccc(Cl)cc3)c3ccccc32)CC1 , no commentary.
Out: 5.24
